Each recorded value in this set is attributed to ChEMBL document CHEMBL5543060.

Target: UniProt:Q9BY41
Sequence (Q9BY41 whole entry): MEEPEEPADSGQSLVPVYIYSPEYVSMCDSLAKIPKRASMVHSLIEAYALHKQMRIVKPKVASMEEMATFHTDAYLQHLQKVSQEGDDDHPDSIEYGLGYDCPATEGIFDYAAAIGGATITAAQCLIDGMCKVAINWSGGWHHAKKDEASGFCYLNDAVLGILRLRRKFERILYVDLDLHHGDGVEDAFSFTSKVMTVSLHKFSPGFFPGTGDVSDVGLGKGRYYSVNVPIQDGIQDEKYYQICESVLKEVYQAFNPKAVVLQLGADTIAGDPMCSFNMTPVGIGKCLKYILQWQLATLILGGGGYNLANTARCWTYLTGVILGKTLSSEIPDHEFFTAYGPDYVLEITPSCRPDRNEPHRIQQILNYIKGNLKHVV
Test: Inhibition of human HDAC8 using Boc-Lys (Ac)-AMC as substrate incubated for 60 mins by fluorimetric assay
Measured IC50 by item
attribute measured: IC50 (µM)

{"columns": ["entry smiles", "attribute measured", "result"],
 "data": [
  ["O=C(COc1ccc2c(c1)OC1(CCN(Cc3cc(Cl)cc(Cl)c3)CC1)CC2=O)NO", "IC50", 8],
  ["O=C(COc1ccc2c(c1)OC1(CCN(Cc3cc(F)cc(F)c3)CC1)CC2=O)NO", "IC50", 9]
]}
